- assayedSystem: T1, RSV F glycoprotein (NUF4) (respiratory syncytial virus)
- T1 chain 1: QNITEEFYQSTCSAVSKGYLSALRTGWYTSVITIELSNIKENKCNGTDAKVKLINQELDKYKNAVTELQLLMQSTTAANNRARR
- T1 chain 2: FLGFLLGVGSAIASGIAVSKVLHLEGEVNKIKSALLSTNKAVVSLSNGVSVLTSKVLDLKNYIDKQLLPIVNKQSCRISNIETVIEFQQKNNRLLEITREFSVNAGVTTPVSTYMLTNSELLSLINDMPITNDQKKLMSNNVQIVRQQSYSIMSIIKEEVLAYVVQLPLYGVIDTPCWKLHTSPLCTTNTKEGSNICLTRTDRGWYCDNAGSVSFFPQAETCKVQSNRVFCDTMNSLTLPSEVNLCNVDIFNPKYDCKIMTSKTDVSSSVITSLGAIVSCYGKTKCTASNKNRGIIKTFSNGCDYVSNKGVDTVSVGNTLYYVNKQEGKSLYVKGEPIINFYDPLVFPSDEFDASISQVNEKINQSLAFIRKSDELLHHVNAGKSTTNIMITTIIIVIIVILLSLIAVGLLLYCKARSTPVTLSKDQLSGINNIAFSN
- experiment: BIAcore, mAb vs NUF4 (1:1)
Each item that follows carries a reported number in parentheses after KD (fold against SYNAGIS = 1).
resultType: number in parentheses after KD (fold against SYNAGIS = 1) (fold)

binder: A13c4 (monoclonal antibody) (antibody, V domains shown, mAb with framework and constant regions of SYNAGIS) VH: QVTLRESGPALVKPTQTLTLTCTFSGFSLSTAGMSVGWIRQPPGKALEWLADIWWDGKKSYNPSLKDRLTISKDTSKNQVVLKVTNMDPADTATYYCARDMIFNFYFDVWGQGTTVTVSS VL: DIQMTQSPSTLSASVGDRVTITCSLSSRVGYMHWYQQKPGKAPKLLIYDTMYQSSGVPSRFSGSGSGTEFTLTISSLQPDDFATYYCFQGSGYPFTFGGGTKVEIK
measurement: 12

binder: P11d4 (monoclonal antibody) (antibody, V domains shown, mAb with framework and constant regions of SYNAGIS) VH: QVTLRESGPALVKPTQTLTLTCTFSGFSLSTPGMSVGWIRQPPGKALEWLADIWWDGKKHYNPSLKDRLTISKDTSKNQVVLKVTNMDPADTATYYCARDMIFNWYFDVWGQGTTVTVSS VL: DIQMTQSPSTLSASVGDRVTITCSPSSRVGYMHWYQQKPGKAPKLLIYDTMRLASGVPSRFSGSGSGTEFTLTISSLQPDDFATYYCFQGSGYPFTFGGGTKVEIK
measurement: 10

binder: P12f2 (monoclonal antibody) (antibody, V domains shown, mAb with framework and constant regions of SYNAGIS; also called Pf12) VH: QVTLRESGPALVKPTQTLTLTCTFSGFSLSTPGMSVGWIRQPPGKALEWLADIWWDDKKHYNPSLKDRLTISKDTSKNQVVLKVTNMDPADTATYYCARDMIFNFYFDVWGAGTTVTVSS VL: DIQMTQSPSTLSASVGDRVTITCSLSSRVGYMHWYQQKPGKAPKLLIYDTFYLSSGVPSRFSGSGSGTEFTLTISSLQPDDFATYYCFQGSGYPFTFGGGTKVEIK
measurement: 26

binder: A12a6 (monoclonal antibody) (antibody, V domains shown, mAb with framework and constant regions of SYNAGIS) VH: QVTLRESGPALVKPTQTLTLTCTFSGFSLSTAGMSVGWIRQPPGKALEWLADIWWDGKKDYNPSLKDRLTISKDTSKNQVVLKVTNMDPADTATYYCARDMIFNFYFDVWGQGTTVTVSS VL: DIQMTQSPSTLSASVGDRVTITCSASSRVGYMHWYQQKPGKAPKLLIYDTFKLSSGVPSRFSGSGSGTEFTLTISSLQPDDFATYYCFQGSGYPFTFGGGTKVEIK
measurement: 12

binder: A4B4 (monoclonal antibody) (antibody, V domains shown, mAb; also called A4B4/A4B4 (HC/LC)) VH: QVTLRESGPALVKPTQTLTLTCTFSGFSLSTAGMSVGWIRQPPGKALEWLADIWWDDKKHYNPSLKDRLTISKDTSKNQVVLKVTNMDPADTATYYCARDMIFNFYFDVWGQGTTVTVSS VL: DIQMTQSPSTLSASVGDRVTITCSASSRVGYMHWYQQKPGKAPKLLIYDTFFLDSGVPSRFSGSGSGTEFTLTISSLQPDDFATYYCFQGSGYPFTFGGGTKLEIK
measurement: 15

Measured values drawn from patent US20030091584A1 for this set.
